- run_conditions: in dichloromethane, 288.15 K
result_type: solubility (mole fraction)

record_smiles: C=CC(=O)NCO
result_type: solubility (mole fraction)
readout_value: 0.0025

---

- run_conditions: in toluene, 284.35 K

record_smiles: C=CC(=O)NCO
solubility (mole fraction): 0.0006

---

- run_conditions: in furan, 278.55 K
result_type: solubility (mole fraction)

record_smiles: C=CC(=O)NCO
readout_value: 0.0445

---

- run_conditions: in dichloromethane, 277.55 K
result_type: solubility (mole fraction)

record_smiles: C=CC(=O)NCO
result_type: solubility (mole fraction)
readout_value: 0.0018

---

- run_conditions: in toluene, 294.95 K

record_smiles: C=CC(=O)NCO
solubility (mole fraction): 0.0011
